Biological target: LIMK2KD (Homo sapiens, UniProt P53671)
Construct: The cDNA coding for LIMK2 residues 330 to 632 was PCR amplified; His6 (N, cleaved yes); made in house; host or cells: baculovirus; Sf9 for virus, TriEx insect cells for expression
Sequence (P53671 330-632): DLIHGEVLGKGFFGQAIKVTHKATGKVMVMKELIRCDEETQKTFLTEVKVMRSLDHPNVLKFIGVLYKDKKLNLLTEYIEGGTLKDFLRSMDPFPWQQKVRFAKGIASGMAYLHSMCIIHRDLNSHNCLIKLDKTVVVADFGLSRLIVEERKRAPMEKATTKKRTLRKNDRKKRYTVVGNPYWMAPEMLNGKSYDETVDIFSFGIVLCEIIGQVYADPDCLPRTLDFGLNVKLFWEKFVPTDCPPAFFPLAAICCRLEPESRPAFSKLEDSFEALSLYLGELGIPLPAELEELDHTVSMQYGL
Experiment: Differential (dynamic) scanning fluorimetry (DSF) assay, LIMK2KD
Type: binding
Conditions: LIMK2KD, compound 10 µM, single shot; read-out: TM Shift LIMK2 (K)
Where a name gives a salt, the structure may show the parent alone.

compound: CCC(=O)N1CCN(c2ccc(-n3c(=O)ccc4cnc5ccc(-c6cnc7ccccc7c6)cc5c43)cc2C(F)(F)F)CC1
ΔTm at 10 µM / °C: 3.1
//
compound: C#Cc1cccc(Nc2ncnc3cc4c(cc23)OCCOCCOCCO4)c1
ΔTm at 10 µM / °C: -0.6
//
compound: CCn1c(-c2nonc2N)nc2c(C#CC(C)(C)O)ncc(OC[C@H]3CCCNC3)c21
ΔTm at 10 µM / °C: 0
//
compound: C#Cc1cccc(Nc2ncnc3cc(OCCOC)c(OCCOC)cc23)c1 [Erlotinib HCl (OSI-744), Erlotinib HCl]
ΔTm at 10 µM / °C: 0.5
//
compound: COCCOc1ccc2c(c1)ncn2-c1ccc2cccc(N3CCC(N)CC3)c2n1
ΔTm at 10 µM / °C: 1.9
//
compound: O=c1cc(-c2cccc3c2Sc2ccccc2S3)oc(N2CCOCC2)c1
ΔTm at 10 µM / °C: -0.1
//
compound: COc1cc2ncnc(Nc3ccc(F)c(Cl)c3)c2cc1NC(=O)/C=C/CN1CCCCC1
ΔTm at 10 µM / °C: 0.2

---

Molecular target: LIMK2KD (Homo sapiens)
Construct: The cDNA coding for LIMK2 residues 330 to 632 was PCR amplified; His6 (N, cleaved yes); made in house; host or cells: baculovirus; Sf9 for virus, TriEx insect cells for expression
Experiment: Differential (dynamic) scanning fluorimetry (DSF) assay, LIMK2KD
Type: binding
Conditions: LIMK2KD, compound 10 µM, single shot; read-out: TM Shift LIMK2 (K)
Counter-ions that a name gives are not always drawn.
ΔTm at 10 µM values, listed per item
endpoint: ΔTm at 10 µM (°C)

compound: CN(C[C@@H]1COCCO1)S(=O)(=O)Nc1ccc2ccc3ncc(-c4cnn(C)c4)cc3c(=O)c2c1
subject.of.test: LIMK2KD (Homo sapiens)
endpoint: ΔTm at 10 µM
observed: 0.3

compound: O=C(Nc1cccc(Cl)c1)Nc1ncc(CCNc2ncnc3ccsc23)s1 [SNS-314 Mesylate]
subject.of.test: LIMK2KD (Homo sapiens)
endpoint: ΔTm at 10 µM
observed: 0.8

compound: COc1cc(N2CCC(N3CCN(C)CC3)CC2)ccc1Nc1ncc(Cl)c(Nc2ccccc2P(C)(C)=O)n1
subject.of.test: LIMK2KD (Homo sapiens)
endpoint: ΔTm at 10 µM
observed: 0.1

compound: O=C1NC(=O)[C@@H](c2cn3c4c(cccc24)CCC3)[C@@H]1c1c[nH]c2ccccc12 [Tivantinib]
subject.of.test: LIMK2KD (Homo sapiens)
endpoint: ΔTm at 10 µM
observed: 0.6

compound: CNC(=O)c1ccc(-c2cnc3ncc(Cc4ccc5ncccc5c4)n3n2)cc1F
subject.of.test: LIMK2KD (Homo sapiens)
endpoint: ΔTm at 10 µM
observed: 0

compound: COc1cc2ncnc(Nc3cccc(Cl)c3)c2cc1OC
subject.of.test: LIMK2KD (Homo sapiens)
endpoint: ΔTm at 10 µM
observed: -0.2

compound: CO[C@@H](C(=O)N1Cc2n[nH]c(NC(=O)c3ccc(N4CCN(C)CC4)cc3)c2C1)c1ccccc1
subject.of.test: LIMK2KD (Homo sapiens)
endpoint: ΔTm at 10 µM
observed: 1

The origin of these recorded values is paper PMC6835155.
